# System: human umbilical vein endothelial cells (HUVEC)
# assay name: Inhibition of HUVEC net structure (tube) formation on ECM/Matrigel
# Type: cell-based
# assay context: group without drug = 100%, read-out: 50% inhibiting concentration (IC50) for inhibiting tube formation
# Method: The lyophilized powder was dissolved in an appropriate solvent and an in vitro anti-angiogenesis was performed thereto. The ability of the extract for inhibiting net structure formation of human umbilical vein endothelial cells (HUVEC) in extracellular matrix (ECM) or growth factor reduced Matrigel was analyzed, and the forming level of the tube structure thereof was integrated to be used as an indicator for quantification. […]
quantity name: pIC50
Answers are plain numbers, as −log10 of the molar value.

What does the record list as pIC50 for COc1cc(C[C@H]2C(=O)OC[C@@H]2Cc2ccc3c(c2)OCO3)cc(OC)c1OC ? 6.47
